# assay protocol: qHTS of pediatric cancer cell lines to identify multiple opportunities for drug repurposing: Primary screen for U-2 OS cells (AID 1347096); also: nearly all actives have a fitted effect of over 50% in size
# run parameters: U-2 OS viability, CellTiter-Glo luminescence, 48 h; series mostly up to 46 µM
Inconclusive results are not listed. The source made the active and inactive calls. Calls follow the shape of the dose curve; as a rule, active = well fitted cell-killing curve with a large enough effect; inconclusive = small, poorly fitted or top-dose-only effect; inactive = flat fitted curve, though single readings scatter.
Your response should consist of one outcome taken from 1 (yes) = active, 0 (no) = inactive

CC1=C(CO)C(=O)O[C@@H]([C@@H](C)[C@H]2CC[C@H]3[C@@H]4C[C@H]5O[C@]56[C@@H](O)C=CC(=O)[C@]6(C)[C@@H]4CC[C@]23C)C1; 0 (no)
CNC(=O)c1ccc(N2C(=S)N(c3cnc(C#N)c(C(F)(F)F)c3)C(=O)C23CCC3)cc1F; 1 (yes)

query: Called result for COc1cc(C(C)C)c2c(c1)S(=O)(=O)N(COc1cc(=O)n3cccc(OCCN4CCCCC4)c3n1)C2=O
result: 0 (no)
